Origin of values: paper PMC10015889

assaySystem: HLA-DR0901 (Homo sapiens, UniProt P01903+P01911, A100R/A103E/D57H/D86V/F55Y/F60I/F76Y/I96F/K127E/L162R/M171V/P40D/Q125H/Q99R/R33Q/R42F/S133A/S66N/T210M/V115G/W38K/Y107V/Y59G/Y89S)
assayNotes: Peptide-MHCII competition binding assay, DR0901
conditionDetails: competition with biotinylated reference peptide TT 503-515; HLA-DRB1 50 nM, pH 5.4, 37°C 18-24 h, Eu-streptavidin fluorescence, triplicate wells; read-out: Experimental binding affinity (IC50), DR0901
No end group written: not given here.
Would you mind telling me the reported IC50 of each entry?
One number for each entry, in µM.

> print(dat)
                       residuecodes  reported
1  FGNVDSSGIKHNIGNPPIIA [2127-2146]      60.9

Okay, here is my list. What is IC50 for each of these?
1. STGTLMVFFGNVDSSGIKHN [2119-2138]
2. IMYSLDGKKWQTYRGNSTGT [2103-2122]
3. KWQTYRGNSTGTLMVFFGNV [2111-2130]

55.6
57.3
0.6

* * *

assaySystem: HLA-DR0101 (Homo sapiens, UniProt P01903+P01911, A100R/D57E/F55L/F60I/F76Y/I96L/L162R/M171V/P40L/Q125E/R42F/V115G/Y59C)
Construct: Recombinant, extracellular domains of 10 HLA-DRB1 protein monomers; purchased Tetramer Core Facility, Benaroya Research Institute
assayNotes: Peptide-MHCII competition binding assay, DR0101
conditionDetails: read-out: Experimental binding affinity (IC50), DR0101
No end group written: not given here.
measurementType: IC50

For every item below, please supply its IC50.
1. FGNVDSSGIKHNIGNPPIIA [2127-2146]
2. STGTLMVFFGNVDSSGIKHN [2119-2138]
3. IMYSLDGKKWQTYRGNSTGT [2103-2122]
4. KWQTYRGNSTGTLMVFFGNV [2111-2130]

1. > 50 µM
2. > 50 µM
3. > 50 µM
4. 10.9 µM

* * *

I'd be grateful if you could share measured IC50 for these entries.
assaySystem: HLA-DR1501 (Homo sapiens, UniProt P01903+P01911)
Construct: Recombinant, extracellular domains of 10 HLA-DRB1 protein monomers; purchased Tetramer Core Facility, Benaroya Research Institute
assayNotes: Peptide-MHCII competition binding assay, DR1501
conditionDetails: competition with biotinylated reference peptide MBP 84-102; HLA-DRB1 50 nM, pH 5.4, 37°C 18-24 h, Eu-streptavidin fluorescence, triplicate wells; read-out: Experimental binding affinity (IC50), DR1501
No end group written: not given here.
Answers are plain numbers, in µM.

> print(dat)
                       residuecodes                               assaysystem  reported
1  IMYSLDGKKWQTYRGNSTGT [2103-2122]  HLA-DR1501 (Homo sapiens, UniProt P01903+P01911)      41.9

Field: IC50. Fill in for each record below.
1. STGTLMVFFGNVDSSGIKHN [2119-2138]
2. FGNVDSSGIKHNIGNPPIIA [2127-2146]

[2.97, 7.52]

Note to self: IC50 of KWQTYRGNSTGTLMVFFGNV [2111-2130] with HLA-DR1501 (Homo sapiens, UniProt P01903+P01911) was 9.09
